biological target: Carbonic anhydrase 1 (Homo sapiens)
Sequence (P00915 whole entry): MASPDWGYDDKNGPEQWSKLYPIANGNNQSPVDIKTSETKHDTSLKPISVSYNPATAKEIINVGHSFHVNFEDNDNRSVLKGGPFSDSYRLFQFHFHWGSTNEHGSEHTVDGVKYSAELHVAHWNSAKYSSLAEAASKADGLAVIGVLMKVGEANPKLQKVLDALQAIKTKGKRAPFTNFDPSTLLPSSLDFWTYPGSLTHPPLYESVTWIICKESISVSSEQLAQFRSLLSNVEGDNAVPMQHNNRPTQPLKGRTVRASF
Readout Name: pKi
pKi here: minus log base 10 of the concentration, concentration in moles per litre.

Exercise: What value of pKi has been reported for the following compound? NS(=O)(=O)c1cccc(S(N)(=O)=O)c1
Key: 4.55
